- Tested on: Jurkat
- assay.explanation: Inhibition of serum-induced proliferation in human Jurkat cells
- Assay type: functional, cell-based

entry.smiles: CN1CCc2[nH]c(=S)c(C#N)c(-c3cccs3)c2C1
IC50: < 8 µM

----------
- target.of.assay: STE20-like serine/threonine-protein kinase (Homo sapiens) (UniProt Q9H2G2)
- Sequence (Q9H2G2 whole entry, looked up): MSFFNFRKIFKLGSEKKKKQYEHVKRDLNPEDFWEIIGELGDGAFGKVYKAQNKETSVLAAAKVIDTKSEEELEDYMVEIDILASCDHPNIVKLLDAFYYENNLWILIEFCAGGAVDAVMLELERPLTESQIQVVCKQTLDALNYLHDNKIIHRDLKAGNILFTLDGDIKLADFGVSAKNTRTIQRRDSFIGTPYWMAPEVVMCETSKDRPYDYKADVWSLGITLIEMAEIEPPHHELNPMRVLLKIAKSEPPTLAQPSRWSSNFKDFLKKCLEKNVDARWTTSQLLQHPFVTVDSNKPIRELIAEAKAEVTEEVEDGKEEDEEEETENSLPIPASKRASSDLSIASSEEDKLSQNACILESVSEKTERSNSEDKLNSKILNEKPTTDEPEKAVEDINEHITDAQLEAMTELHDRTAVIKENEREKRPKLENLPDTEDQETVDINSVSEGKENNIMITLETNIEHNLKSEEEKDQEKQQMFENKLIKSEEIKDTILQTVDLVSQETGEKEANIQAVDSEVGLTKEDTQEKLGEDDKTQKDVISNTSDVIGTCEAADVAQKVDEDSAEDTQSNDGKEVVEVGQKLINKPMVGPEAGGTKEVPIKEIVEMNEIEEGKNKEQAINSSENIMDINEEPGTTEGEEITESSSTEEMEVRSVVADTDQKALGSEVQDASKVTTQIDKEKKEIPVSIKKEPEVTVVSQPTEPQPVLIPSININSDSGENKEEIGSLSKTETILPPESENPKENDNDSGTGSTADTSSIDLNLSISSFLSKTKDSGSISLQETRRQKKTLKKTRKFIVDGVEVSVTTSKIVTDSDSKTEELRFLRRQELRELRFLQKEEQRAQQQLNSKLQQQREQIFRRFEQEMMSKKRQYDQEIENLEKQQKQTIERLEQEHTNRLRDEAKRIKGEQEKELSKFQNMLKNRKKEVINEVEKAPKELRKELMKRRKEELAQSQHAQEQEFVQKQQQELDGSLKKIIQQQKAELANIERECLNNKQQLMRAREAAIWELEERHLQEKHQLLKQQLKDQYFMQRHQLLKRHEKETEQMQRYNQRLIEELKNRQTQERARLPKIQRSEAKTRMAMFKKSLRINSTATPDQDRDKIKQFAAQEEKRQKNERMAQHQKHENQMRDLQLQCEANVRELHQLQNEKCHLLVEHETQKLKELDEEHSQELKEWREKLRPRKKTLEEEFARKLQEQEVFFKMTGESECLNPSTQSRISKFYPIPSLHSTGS
Classes based on ΔTm: Low: < 0.8 °C; Mid: ≥ 0.8 °C and < 3 °C; High: ≥ 3 °C

entry.smiles: CC(C)c1nn(-c2c(Cl)cccc2Cl)c2nc(Cc3ccc(OCCO)cc3)[nH]c(=O)c12
target.of.assay: STE20-like serine/threonine-protein kinase (Homo sapiens) (UniProt Q9H2G2)
classification: Low
--
entry.smiles: NC1=N/C(=C2/CCNC(=O)c3[nH]ccc32)C(=O)N1
target.of.assay: STE20-like serine/threonine-protein kinase (Homo sapiens) (UniProt Q9H2G2)
classification: Low
--
entry.smiles: N#C/C(=C\c1ccc(O)c(O)c1)C(=O)NCc1ccccc1
target.of.assay: STE20-like serine/threonine-protein kinase (Homo sapiens) (UniProt Q9H2G2)
classification: Mid
--
entry.smiles: CC(C)(C)n1nc(-c2ccc(Cl)cc2)c2c(N)ncnc21
target.of.assay: STE20-like serine/threonine-protein kinase (Homo sapiens) (UniProt Q9H2G2)
classification: High
--
entry.smiles: COc1ccc2c(c1)/C(=C/c1cnc[nH]1)C(=O)N2
target.of.assay: STE20-like serine/threonine-protein kinase (Homo sapiens) (UniProt Q9H2G2)
classification: High
--
entry.smiles: Nc1cccc(-c2cc3c(Oc4cccc(O)c4)ncnc3[nH]2)c1
target.of.assay: STE20-like serine/threonine-protein kinase (Homo sapiens) (UniProt Q9H2G2)
classification: High
--
entry.smiles: COc1cc(C[C@H]2C(=O)OC[C@@H]2Cc2ccc(OC)c(OC)c2)ccc1O
target.of.assay: STE20-like serine/threonine-protein kinase (Homo sapiens) (UniProt Q9H2G2)
classification: Low
--
entry.smiles: COc1cc2c(cc1OC)-c1n[nH]c(Nc3cccc(F)c3)c1C2
target.of.assay: STE20-like serine/threonine-protein kinase (Homo sapiens) (UniProt Q9H2G2)
classification: Mid
--
entry.smiles: N=C(N)NCCNS(=O)(=O)c1cccc2cnccc12
target.of.assay: STE20-like serine/threonine-protein kinase (Homo sapiens) (UniProt Q9H2G2)
classification: Low
--
entry.smiles: Cc1[nH]c(/C=C2\C(=O)Nc3ccc(S(=O)(=O)N(C)c4cccc(Cl)c4)cc32)c(C)c1C(=O)N1CCN(C)CC1
target.of.assay: STE20-like serine/threonine-protein kinase (Homo sapiens) (UniProt Q9H2G2)
classification: Mid
--
entry.smiles: O=C1NC(=O)C(c2c[nH]c3ccccc23)=C1c1c[nH]c2ccccc12
target.of.assay: STE20-like serine/threonine-protein kinase (Homo sapiens) (UniProt Q9H2G2)
classification: High
--
entry.smiles: O=C1NC(=O)C(c2cn(CCCn3ccnc3)c3ccccc23)=C1Nc1ccccc1
target.of.assay: STE20-like serine/threonine-protein kinase (Homo sapiens) (UniProt Q9H2G2)
classification: High
--
entry.smiles: CC(C)(C)n1nc(-c2cccc3ccccc23)c2c(N)ncnc21
target.of.assay: STE20-like serine/threonine-protein kinase (Homo sapiens) (UniProt Q9H2G2)
classification: High
--
entry.smiles: O=C1Cc2c([nH]c3ccc([N+](=O)[O-])cc23)-c2ccccc2N1
target.of.assay: STE20-like serine/threonine-protein kinase (Homo sapiens) (UniProt Q9H2G2)
classification: Mid
--
entry.smiles: COC1=C2C[C@@H](C)C[C@H](OC)[C@H](O)[C@@H](C)/C=C(\C)[C@H](OC(N)=O)[C@@H](OC)/C=C\C=C(/C)C(=O)NC(=CC1=O)C2=O
target.of.assay: STE20-like serine/threonine-protein kinase (Homo sapiens) (UniProt Q9H2G2)
classification: Mid
--
entry.smiles: O=[N+]([O-])c1ccc(-c2nc(-c3ccc(F)cc3)c(-c3ccncc3)[nH]2)cc1
target.of.assay: STE20-like serine/threonine-protein kinase (Homo sapiens) (UniProt Q9H2G2)
classification: High
--
entry.smiles: COc1cc(O)c2c(c1)oc(=O)c1c3cc(O)c(O)cc3oc21
target.of.assay: STE20-like serine/threonine-protein kinase (Homo sapiens) (UniProt Q9H2G2)
classification: Mid
--
entry.smiles: C=CNC#N
target.of.assay: STE20-like serine/threonine-protein kinase (Homo sapiens) (UniProt Q9H2G2)
classification: Low
--
entry.smiles: N#CC(C#N)=Cc1ccc(O)c(O)c1
target.of.assay: STE20-like serine/threonine-protein kinase (Homo sapiens) (UniProt Q9H2G2)
classification: Low
